Can you tell me melting point for the items I'm about to list?

Request: Please report the measured melting point for "O=C(Nc1ccc(C(=O)N2Cc3ccccc3Cc3ccccc32)cc1)c1cccc(Cl)c1Cl"
Response: 225 to 230 °C

Request: Supply reported melting point belonging to this compound: "C/C=C/c1cc(OC)c2oc(-c3ccc(O)c(OC)c3)c(CO)c2c1"
Response: 175 to 179 °C

Request: For the compound "O=C(O)CCCc1nc2nc[nH]c2c2nc(-c3ccccc3)nn12" , report melting point.
Response: 280 °C

Request: Please supply the value of reported melting point for the item "Cc1c(F)c(=O)n(-c2cc(C(=O)OC(C)C)c(Cl)cc2F)c(=O)n1C"
Response: 112 to 115 °C

Request: State, in one line, measured melting point of "O=C(O)CCC(=NO)c1ccc(-c2ccc(Br)cc2F)cc1"
Response: 163 to 164 °C

Request: Determine from records and report melting point for "COc1ccc(-n2c3ccccc3c3cc(C(C#N)=C(C#N)c4cc(F)cc(F)c4)ccc32)cc1"
Response: 140 to 142 °C

Request: Answer with the recorded melting point for the compound listed here: "OCc1ccc(-c2cc3c(NCc4cccc(Cl)c4)ncnc3[nH]2)cc1"
Response: 296 to 298 °C

Request: # return recorded melting point for input CCOc1ccccc1OCC(O)CNC(C)=CC(=O)c1cccnc1 (single isomer, unassigned; (-))
Response: 94 °C

Request: Name the recorded melting point of the compound listed here: CC(C)C(=O)NC1C(OCc2ccccc2)=CC=CC1(Br)[N+](=O)[O-] (centres undefined)
Response: 197 to 198 °C

###

Kindly supply the reported melting point values for the records listed here.

Request: Let me know recorded melting point for Cc1ccc(-c2cc(C)c3c(c2)C(C)CC(=O)N3)c(C)n1 (stereo not given) , thanks.
Response: 146 to 148 °C

Request: Return melting point (reported value) for this compound: CC(C)N1CC2(COc3ccc(N(C)C)cc3OC2)OC1=O (stereo not given)
Response: 135 to 138 °C

Request: Output measured melting point for this item: CCCn1c(=O)c2nc(C(C)Cc3ccc(OCC(=O)O)cc3)[nH]c2n(CCC)c1=O (stereo not given)
Response: 168 to 170 °C

Request: Note down melting point recorded for CC12CCC(=O)C=C1C(=O)CC1C2CCC2(C)C(c3cccnc3)=CCC12 (stereo not given)
Response: 210 to 212 °C

Request: Given the compound "Cc1cc(Oc2ccc(-c3ccn(CC4CC4)c(=O)c3C(F)(F)F)cc2F)cc(C)n1" , write its reported melting point.
Response: 162 °C

Request: Please indicate melting point recorded for C=Cc1cc(C(C)NC(=O)OC(C)(C)C)ccc1NS(=O)(=O)C=C (stereo not given)
Response: 80 to 82 °C

Request: Give reported melting point value for "O=C(OCC1CCC1)c1ncn2c1[C@@H]1CCCN1C(=O)c1c(Cl)cccc1-2"
Response: 204 to 205 °C

Request: Give the reported value of melting point for this record: "CCOC(=O)C(=CNCc1csnn1)C(=O)c1cc(F)c(F)cc1F"
Response: 176 to 178 °C

Request: Give the value of melting point reported for the following: "O=C(CC(=O)C(CF)CF)c1ccc(OCc2ccccc2)cc1"
Response: 184 to 188 °C

Request: Query melting point for "Cc1c(CC(=O)O)c2cc(O)ccc2n1C(=O)c1ccc(OC(F)(F)F)cc1"
Response: 193 to 195 °C

###

Provide the reported melting point of each item.

Request: Provide melting point value for the following compound: "Cc1cc(C=O)c(OCCCCCCCCc2ccccc2)c(C=O)c1"
Response: 59 °C

Request: For the compound "CCOc1ccc(-c2nc(-c3ccc(N)c(C(=O)O)c3)cs2)cc1OCC" , give its measured melting point value.
Response: 228 to 229 °C

Request: Report measured melting point; entry is "CNC(=O)Nc1ccccc1"
Response: 149 to 150 °C

Request: Determine from records and report melting point for "CS(=O)(=O)Nc1ccc(Sc2ccc([N+](=O)[O-])cc2)cc1Oc1ccc(F)cc1F"
Response: 124 to 127 °C

Request: Identify melting point associated with the compound "CCc1cc(C)cc(CC)c1C1C(=O)N2CCOCCN2C1=O"
Response: 193 to 194 °C

###

I'd appreciate it if you could supply melting point values for the items below.

Request: Tell me measured melting point for COC(c1sc2ccc(Cl)cc2c1Cl)C(C)NC(=O)c1cn(C)nc1C(F)F (centres undefined) please.
Response: 128 to 132 °C

Request: Provide measured melting point value, entry: "CN(C)c1cc2nc(C(C)(C)C)sc2cc1N=C=S"
Response: 63 to 66 °C

Request: Tell me melting point reported for COc1ccc2cc(-c3nn(C(C)c4oc5ccccc5c(=O)c4-c4cccc(F)c4)c4ncnc(N)c34)ccc2c1 (centres undefined)
Response: 285 to 287 °C

Request: Annotate the compound "CC(=O)c1cc2cccc(NS(=O)(=O)c3cccs3)c2[nH]1" with its measured melting point.
Response: 241 to 243 °C

Request: Find the measured melting point of "O=C1c2ccccc2C(=O)N1C(=O)c1cc(Oc2ccc(C(F)(F)F)cc2Cl)ccc1[N+](=O)[O-]" and report it.
Response: 160 °C

Request: Consider the compound "COc1cccc([C@H]2O[C@H](CC(=O)Nc3cccc(CCCCC(=O)O)c3)C(=O)N(CC(C)(C)CO)c3ccc(Cl)cc32)c1OC" and give its recorded melting point.
Response: 117 to 119 °C

Request: Answer with the recorded melting point for the compound listed here: "Clc1ccc2nccc(Cl)c2c1"
Response: 101 to 104 °C

Request: Note down melting point recorded for Cc1cnc(C)n1CC(O)c1ccc(-c2ccc(N3C[C@H](Cn4ccnn4)OC3=O)cc2F)cn1 (some centres undefined)
Response: 195 to 200 °C

Request: Quick one: give measured melting point for "O=Cc1cc2sc3ccccc3c2c2ccccc12"
Response: 142 to 144 °C

Request: Return reported melting point. Input compound: "CN(CCNc1ccn2ncc(-c3cccs3)c2n1)C(=O)OC(C)(C)C"
Response: 140 to 141 °C

Request: Dear colleague, please send me the reported melting point for "CC(C)[C@H](NS(=O)(=O)c1ccc(-c2ccc(Br)cc2)cc1)C(=O)O" when you can.
Response: 192 to 193 °C

Request: Please give measured melting point of the following entry: "COc1ccc(CN2C(=O)c3ccccc3C2=O)cc1OC"
Response: 160 to 161 °C

Request: Provide measured melting point value, entry: CS(=O)(=O)Nc1ccc2c(c1)S(=O)(=O)NC1CCCN21 (centres undefined)
Response: 177 to 180 °C

Request: Give melting point for the following compound: "CCCCOc1c(OC)c(OC)cc(C)c1C(=O)c1c(Cl)cccc1Cl"
Response: 70 °C

Request: Check the records and state melting point for "CCOc1cc(-c2cc(C(F)(F)F)n3ncc(C(=O)Nc4nc(C)c(S(N)(=O)=O)s4)c3n2)ccc1C(F)(F)F"
Response: 300 °C

Request: State its melting point for this compound: "N#Cc1c(N2CCN(C(=O)c3c[nH]cn3)CC2)c2ccccc2n(Cc2ccc(F)cc2)c1=O"
Response: 176 to 183 °C

Request: Given the compound "O=Cc1ccc2[nH]cc(CCCCN3CC=C(c4ccccc4)CC3)c2c1" , write its reported melting point.
Response: 131 °C

Request: Provide measured melting point value, entry: O=C(CCC(O)c1ccccc1)NC1CCCCC1 (centres undefined)
Response: 91 to 93 °C

Request: Give melting point for the following compound: O=C1CC2CC[C@@H](CN3C(=O)c4ccccc4C3=O)OC2O1 (some centres undefined)
Response: 186 to 189 °C

###

testReadout: melting point

Request: Find the measured melting point of "Cc1ccc2nc(SCc3ccccn3)n(-c3ccccc3)c(=O)c2c1" and report it.
Response: 167 to 169 °C

Request: Output melting point of "CC(=O)c1c(-c2ccccc2)nn(CC2CC2)c(=O)c1Nc1cccc2ncccc12"
Response: 204 to 205 °C

Request: Specify reported melting point for the compound shown: "COC(=O)c1ccc(-c2csc(N3C(=O)OCC3(C)C)n2)cc1"
Response: 176 to 179 °C

Request: State, in one line, measured melting point of "O=C(C(=NO)c1ccc(F)cc1)c1ccnc(F)c1"
Response: 166 °C

Request: Identify melting point associated with the compound "Nc1ccc(Cc2nc3ccccc3o2)cc1"
Response: 105 to 106 °C

Request: Please indicate melting point recorded for "NS(=O)(=O)c1ccc(NC(=O)c2ccccc2S)cc1"
Response: 230 to 231 °C

Request: Give the reported melting point for this compound. "CN(C(=O)NCCc1ccc(F)cc1)c1cccc(-c2ccc(CCC(=O)O)cc2)c1"
Response: 146 °C

Request: Provide only the value of recorded melting point for "CCCCCCCCCCCCCCCCCCSc1ccc(O)cc1"
Response: 95 °C

Request: # return recorded melting point for entry "Cc1nccc(N2CCC(C(=O)N3CCN(S(=O)(=O)c4ccc(Br)cc4)CC3)CC2)n1"
Response: 200 to 202 °C

Request: Give reported melting point value for "FC(F)Oc1ccc(C=Cc2nc(CNc3ccc(CCCCn4ccnn4)cc3)co2)cc1"
Response: 101 to 102 °C
